Where these numbers come from: paper PMC3898987

Measurement target: WT 5-HT3A receptor (Homo sapiens, UniProt P46098)
Assay details: FlexStation membrane potential dye functional assay, HEK293 cells
Condition parameters: inhibition of 5-HT (EC50 concentration) response, 45 min preincubation
pIC50: −log10 of the molar value.

Input smiles: O=C1c2cccc3c2[C@H](CCC3)CN1[C@@H]1CN2CCC1CC2
pIC50: 9.08

###

Measurement target: 5-HT3AB receptor, 5-HT3B subunit W90C (Homo sapiens, UniProt O95264+P46098, W83C)
Sequence (P46098 24-478): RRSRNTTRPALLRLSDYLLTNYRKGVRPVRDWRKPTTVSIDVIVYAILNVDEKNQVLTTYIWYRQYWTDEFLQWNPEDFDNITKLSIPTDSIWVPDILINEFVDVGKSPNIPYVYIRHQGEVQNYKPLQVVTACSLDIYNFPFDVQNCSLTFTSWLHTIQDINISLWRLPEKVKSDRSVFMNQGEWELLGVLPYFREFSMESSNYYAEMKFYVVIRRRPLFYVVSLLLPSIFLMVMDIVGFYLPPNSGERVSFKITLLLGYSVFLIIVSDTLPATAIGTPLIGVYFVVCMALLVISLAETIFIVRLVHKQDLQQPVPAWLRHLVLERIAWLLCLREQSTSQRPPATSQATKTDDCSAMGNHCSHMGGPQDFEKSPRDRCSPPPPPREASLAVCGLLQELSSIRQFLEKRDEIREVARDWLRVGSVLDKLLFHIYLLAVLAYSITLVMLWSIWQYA
Sequence (O95264 22-441 W83C): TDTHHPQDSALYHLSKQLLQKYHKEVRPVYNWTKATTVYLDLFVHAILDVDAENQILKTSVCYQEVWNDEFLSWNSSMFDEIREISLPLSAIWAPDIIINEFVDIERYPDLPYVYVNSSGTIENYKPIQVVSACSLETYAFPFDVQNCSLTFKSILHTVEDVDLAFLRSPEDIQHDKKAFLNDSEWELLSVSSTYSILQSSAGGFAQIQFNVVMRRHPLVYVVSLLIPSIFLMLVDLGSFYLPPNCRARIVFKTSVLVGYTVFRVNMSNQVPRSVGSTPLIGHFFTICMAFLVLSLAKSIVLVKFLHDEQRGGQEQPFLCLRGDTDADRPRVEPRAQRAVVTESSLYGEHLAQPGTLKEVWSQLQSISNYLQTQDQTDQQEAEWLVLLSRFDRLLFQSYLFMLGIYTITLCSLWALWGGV
Assay details: cell-based

Input smiles: O=C1c2cccc3c2[C@H](CCC3)CN1[C@@H]1CN2CCC1CC2
Measurement target: 5-HT3AB receptor, 5-HT3B subunit W90C (Homo sapiens, UniProt O95264+P46098, W83C)
IC50 [nM]: 0.37
